assay: growth inhibitors of H69AR lung tumor, primary screen, human, duplicate replicates (AID 580); settings: H69AR lung tumor cells viability, ATP luminescence, 72 h; at 10 µM; stronger effect = lower value;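 further: 100% = mean luminescence of untreated wells and 0% = no signal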
Strictly below 90% in viability: 1. Otherwise: 0.

Data request: Item COc1cc(C)c(N)cc1C(C)C : viability beneath 90%, strictly?
Data returned: 0

Data request: Item Cc1ccc(NC(=O)CCN2CCc3ccccc3C2)cc1 : viability beneath 90%, strictly?
Data returned: 0

Data request: Item Cc1nc(N2CCC(C)CC2)c2c(C)c(C(=O)O)sc2n1 : viability beneath 90%, strictly?
Data returned: 1

Data request: Item Cc1cc(C(=O)NCCN2CCN(c3cccc(Cl)c3)CC2)n(-c2ccccc2)n1 : viability beneath 90%, strictly?
Data returned: 1

Data request: Item O=C(NCC1COc2ccccc2O1)C1CCCN(S(=O)(=O)c2cnc[nH]2)C1 (configuration not stated) : viability beneath 90%, strictly?
Data returned: 0

Data request: Item CCn1ncc(C2=NOC(C(=O)NCc3ccccc3)C2)c1C (configuration not stated) : viability beneath 90%, strictly?
Data returned: 1

Data request: Item Cc1nc2ccccn2c1/C(O)=C1\C(=O)C(=O)N(CCN2CCOCC2)C1c1cccs1 (configuration not stated) : viability beneath 90%, strictly?
Data returned: 0

Data request: Item CCOC(=O)c1ccc(NC(=O)c2ccc(NS(C)(=O)=O)cc2)cc1 : viability beneath 90%, strictly?
Data returned: 1

Data request: Item O=C(O)C1CC=CCC1C(=O)Nc1cc(Cl)ccc1Cl (configuration not stated) : viability beneath 90%, strictly?
Data returned: 0

Data request: Item CCNc1nc(N2CCCCC2)nc(-n2nnc(C(=O)OCC)c2C)n1 : viability beneath 90%, strictly?
Data returned: 0

====

assay: reversal of MRP1-mediated doxorubicin resistance, pilot screen, H69AR cells, doxorubicin co-treatment (AID 601); settings: H69AR cells + 2 uM doxorubicin, CellTiter-Glo, 72 h; at 10 µM; stronger effect = higher value
measure_name: differential viability (reversal) (%)
Supply the numeric figure in %, leaving out any unit text.

Data request: Need differential viability (reversal), item CC(C)(C)C1=C[C@@H](CO)C[C@@H](CO)C1
Data returned: -0.585

Data request: Need differential viability (reversal), item COc1cc(CC(=O)NCc2ccc3c(c2)OCO3)cc(OC)c1OC
Data returned: 9.63

Data request: Need differential viability (reversal), item Cc1cccn2c(=O)c3cc(C(=O)N4CCCc5ccccc54)n(C)c3nc12
Data returned: 1.01

Data request: Need differential viability (reversal), item O=S(=O)(c1ccc2nc(Cc3cccc(C(F)(F)F)c3)[nH]c2c1)N1CCOCC1
Data returned: 3.53

Data request: Need differential viability (reversal), item O=C(CN1CCC(NC(=O)c2ccc(F)cc2)CC1)NCc1ccccc1F
Data returned: 3.44

Data request: Need differential viability (reversal), item COC(=O)c1cn(C(=O)OC)c2ccccc12
Data returned: -0.61

Data request: Need differential viability (reversal), item CN(C)C(=O)CN(c1ccc(F)c(Cl)c1)S(C)(=O)=O
Data returned: -10.3

Data request: Need differential viability (reversal), item COc1ccc(N2CCN(C(c3cccs3)c3nnnn3C3CCCC3)CC2)cc1 (stereo unspecified)
Data returned: -17.6

Data request: Need differential viability (reversal), item c1ccc(-c2cc3c(nn2)CCc2nonc2-3)cc1
Data returned: -9.73

Data request: Need differential viability (reversal), item CN(Cc1cccs1)C(=O)CCc1ccc(S(=O)(=O)N2CCOCC2)cc1
Data returned: -10.2

Data request: Need differential viability (reversal), item CN(C)c1nc(N)nc(-c2nc3ccccc3s2)n1
Data returned: 6.39

Data request: Need differential viability (reversal), item CC(=O)c1ccc(NC(=O)c2noc3c2CCCCC3)cc1
Data returned: 17.3

Data request: Need differential viability (reversal), item O=S(=O)(NCCc1ccccn1)c1cccs1
Data returned: 2.29

Data request: Need differential viability (reversal), item COc1ccc(Br)cc1CNC(=O)C1CCCN(S(C)(=O)=O)C1 (stereo unspecified)
Data returned: 6.26

Data request: Need differential viability (reversal), item O=c1c(CN2CCN(Cc3ccccc3)CC2)coc2ccc(Cl)cc12
Data returned: 12.5

Data request: Need differential viability (reversal), item O=C(c1cccnc1NCc1ccccc1)N1CCOCC1
Data returned: 0.76

Data request: Need differential viability (reversal), item Nc1nnc(-c2cn(-c3ccccc3)nc2-c2ccccc2)o1
Data returned: 10.7

Data request: Need differential viability (reversal), item O=C(CSc1nnnn1C1CCCCC1)N1CCc2ccccc21
Data returned: -3.15

Data request: Need differential viability (reversal), item O=c1c2cc(N3CCOCC3)ccc2[nH]c(=S)n1CCCN1CCCCC1
Data returned: 4.74

Data request: Need differential viability (reversal), item CC(NC(=O)Cc1cccs1)c1ccc2c(c1)OCO2 (stereo unspecified)
Data returned: 13.7

Data request: Need differential viability (reversal), item CC(Oc1ccccc1)C(=O)N1CCCc2ccccc21 (stereo unspecified)
Data returned: 4.51

Data request: Need differential viability (reversal), item Cc1cccc(NC(=O)c2cc3n(n2)C(C(F)(F)F)CC(c2ccc4c(c2)OCO4)N3)c1 (stereo unspecified)
Data returned: -6.35

Data request: Need differential viability (reversal), item CC(=O)c1cccc(NC(=O)N2C3CCC2CC(O)(c2cccnc2)C3)c1 (stereo unspecified)
Data returned: 9.59

Data request: Need differential viability (reversal), item CCC(=O)Nc1c(C#N)c2nc3ccccc3nc2n1-c1ccccc1C
Data returned: -3.52

Data request: Need differential viability (reversal), item O=C(OCC(=O)c1cccs1)C1=COCCO1
Data returned: 1.52

Data request: Need differential viability (reversal), item Cc1ccc(CN2C(=O)CCC2C(=O)NC2CCCC2)cc1 (stereo unspecified)
Data returned: -1.04

Data request: Need differential viability (reversal), item CCn1cc(C(=O)Nc2cc3c(cc2NC(C)=O)OCCO3)c(=O)c2ccc(C)nc21
Data returned: -4.02

Data request: Need differential viability (reversal), item COc1ccc(-c2nnc3ccc(SC(C(C)=O)C(C)=O)nn23)cc1OC
Data returned: 4.92

Data request: Need differential viability (reversal), item O=C(NCC1CCCO1)C1CCN(c2ccc(S(=O)(=O)N3CCCC3)cc2)CC1 (stereo unspecified)
Data returned: -6.02

Data request: Need differential viability (reversal), item COC(=O)C(CC(C)C)NC(=O)CSc1nc(-c2ccccc2)c(C#N)c(=O)[nH]1 (stereo unspecified)
Data returned: 7.26

Data request: Need differential viability (reversal), item c1cncc(-c2nnc(-c3ccco3)o2)c1
Data returned: 16

Data request: Need differential viability (reversal), item CCc1c(C(=O)N2CCOCC2)csc1C
Data returned: 20.8

Data request: Need differential viability (reversal), item Cc1ccccc1-c1nc(CN2CCC(C(=O)NCCCN3CCOCC3)CC2)c(C)o1
Data returned: 5.29

Data request: Need differential viability (reversal), item CN(C)S(=O)(=O)c1ccc(S(=O)(=O)Nc2ccc3c(c2)oc2ccccc23)cc1
Data returned: -2.9

Data request: Need differential viability (reversal), item CC(=O)Nc1ccc(Cl)c(C(N)=O)c1
Data returned: 8.55

Data request: Need differential viability (reversal), item CCSc1nnc(NC(=O)c2ccc(C)o2)s1
Data returned: 18.2

Data request: Need differential viability (reversal), item CCOC(=O)C(NC(=O)OC(C)C)(Nc1nccs1)C(F)(F)F (stereo unspecified)
Data returned: 12

Data request: Need differential viability (reversal), item CCNC(=O)N(C)c1nncnc1C(=O)NC
Data returned: 6.2

Data request: Need differential viability (reversal), item Cc1ccccc1N1OC2C(=O)N(c3ccc(F)cc3)C(=O)C2C1c1ccccn1 (stereo unspecified)
Data returned: 9.9

Data request: Need differential viability (reversal), item CCOC(=O)C1CCN(C(=O)CSc2n[nH]c(=O)[nH]c2=O)CC1
Data returned: 5.61

Data request: Need differential viability (reversal), item Cc1cccc(N2CCN(C(=O)c3cc4c(=O)[nH]c5ccccc5c4n3C)CC2)c1C
Data returned: 13

Data request: Need differential viability (reversal), item Cc1cc(C)c(Cn2c(=O)n(CCCC(=O)NCc3ccco3)c(=O)c3ccccc32)c(C)c1
Data returned: 11.4

Data request: Need differential viability (reversal), item O=C(C1CCN(S(=O)(=O)N2CCC3(CC2)OCCO3)CC1)N1CCOCC1
Data returned: 3.86

Data request: Need differential viability (reversal), item CCC(Sc1ncccc1C(=O)O)C(=O)N1CCCC1 (stereo unspecified)
Data returned: 14

Data request: Need differential viability (reversal), item Cc1ccccc1N(CC(=O)NCC1CCCO1)C(=O)C1(C)CC(=O)N=C2C=CC=CN21 (stereo unspecified)
Data returned: -1.7

Data request: Need differential viability (reversal), item Cc1ccc(S(=O)(=O)N2CCN(C(=O)CN3C(=O)NC4(CCOc5ccccc54)C3=O)CC2)cc1 (stereo unspecified)
Data returned: 1.57
